experiment: AUC (0 to 6 hrs) in monkey at 10 mg/kg, po; type: ADME, organism-based, Macaca mulatta; set-up: time < 6 hr, dose 10 mg/kg, route oral; settings: rhesus monkey, plasma
RECORDED_METRIC: AUC(0-t) at 6 h (µM·h)

Would you please look over these solved cases?
compound="CC(C)(C)NC(=O)N[C@H](C(=O)N1C[C@H]2[C@@H]([C@H]1C(=O)NC(CC1CCC1)C(=O)C(N)=O)C2(C)C)C(C)(C)C (stereo partly specified)" recorded_metric="AUC(0-t) at 6 h" units_of_measure=µM·h measurement=0.3
compound="CN(C1CC1)S(=O)(=O)CC1(NC(=O)N[C@H](C(=O)N2CC3C([C@H]2C(=O)N[C@@H](CCC2CC2)C(=O)C(=O)NC2CC2)C3(C)C)C(C)(C)C)CCCCC1 (single isomer, unassigned)" recorded_metric="AUC(0-t) at 6 h" units_of_measure=µM·h measurement=5.4
compound=CCC[C@H](NC(=O)[C@@H]1[C@@H]2[C@H](CN1C(=O)[C@@H](NC(=O)NC1(CS(=O)(=O)N(C)C)CCCCC1)C(C)(C)C)C2(C)C)C(=O)C(=O)NC1CC1 recorded_metric="AUC(0-t) at 6 h" units_of_measure=µM·h measurement=0.1
compound=CCC[C@H](NC(=O)[C@@H]1[C@@H]2[C@H](CN1C(=O)[C@@H](NC(=O)NC1(CS(=O)(=O)N(C)C3CC3)CCCCC1)C(C)(C)C)C2(C)C)C(=O)C(=O)NC1CC1 recorded_metric="AUC(0-t) at 6 h" units_of_measure=µM·h measurement=3.3

1. CC(C)(C)[C@H](NC(=O)NC1(C(=O)OCc2ccccc2)CCCCC1)C(=O)N1C[C@H]2[C@@H]([C@H]1C(=O)NC(CC1CC1)C(=O)C(N)=O)C2(C)C (stereo partly specified)
2. CCC[C@H](NC(=O)[C@@H]1[C@@H]2[C@H](CN1C(=O)[C@@H](NC(=O)NC1(CS(=O)(=O)N(C)CC)CCCCC1)C(C)(C)C)C2(C)C)C(=O)C(=O)NC1CC1
Exercise: compare 1 and 2 ; which one has the greater AUC(0-t) at 6 h? Choose, then provide that item's label. 2
